Subject of test: human-type PPAR α ligand-binding domain (Homo sapiens, UniProt Q07869)
Construct: made in house; host or cells: Escherichia coli
Sequence (Q07869 239-466 limits assumed): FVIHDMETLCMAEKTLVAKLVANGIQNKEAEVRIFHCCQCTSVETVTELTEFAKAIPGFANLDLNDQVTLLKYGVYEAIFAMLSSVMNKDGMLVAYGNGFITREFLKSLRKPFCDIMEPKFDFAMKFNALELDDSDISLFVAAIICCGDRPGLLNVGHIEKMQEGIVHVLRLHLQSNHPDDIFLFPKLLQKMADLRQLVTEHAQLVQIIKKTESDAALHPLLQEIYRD
Protocol text: Competition binding with [3H]KRP-297 to 6×His-hPPARα ligand-binding domain
Test conditions: competition with 100 nM [3H]KRP-297; test concentration not given
Reported endpoint: Binding to the ligand-binding domain of PPARα (%)
# number only, unit % dropped from output

The cases that follow already have their Binding to the ligand-binding domain of PPARα on record.
INSERT INTO measurements (molecule, subject_of_test, scale_unit, number) VALUES
  ('CCCCC/C=C\C/C=C\CCCCCCCC(=O)SCCNC(=O)CCNC(=O)[C@H](O)C(C)(C)COP(=O)(O)OP(=O)(O)OC[C@H]1O[C@@H](n2cnc3c(N)ncnc32)[C@H](O)[C@@H]1OP(=O)(O)O', 'human-type PPAR α ligand-binding domain (Homo sapiens, UniProt Q07869)', '%', 92),
  ('CCCCC/C=C\C/C=C\C=C\[C@@H](O)C/C=C\CCCC(=O)O [8(S)-Hydroxyeicosatetraenoic acid, 8(S)-hydroxyeicosatetraenoic acid, reference compound]', 'human-type PPAR α ligand-binding domain (Homo sapiens, UniProt Q07869)', '%', 99),
  ('CCCCCCCC/C=C\CCCCCCCC(=O)SCCNC(=O)CCNC(=O)[C@H](O)C(C)(C)COP(=O)(O)OP(=O)(O)OC[C@H]1O[C@@H](n2cnc3c(N)ncnc32)[C@H](O)[C@@H]1OP(=O)(O)O', 'human-type PPAR α ligand-binding domain (Homo sapiens, UniProt Q07869)', '%', 95);

Checklist item: Binding to the ligand-binding domain of PPARα tested on human-type PPAR α ligand-binding domain (Homo sapiens, UniProt Q07869), entry CCCCCCCCCCCCCC(=O)SCCNC(=O)CCNC(=O)[C@H](O)C(C)(C)COP(=O)(O)OP(=O)(O)OC[C@H]1O[C@@H](n2cnc3c(N)ncnc32)[C@H](O)[C@@H]1OP(=O)(O)O , value?
70

Okay, and CCCCCCCCCCCCCCCC(=O)SCCNC(=O)CCNC(=O)[C@H](O)C(C)(C)COP(=O)(O)OP(=O)(O)OC[C@H]1O[C@@H](n2cnc3c(N)ncnc32)[C@H](O)[C@@H]1OP(=O)(O)O ?
83

* * *

Subject of test: human-type PPAR γ ligand-binding domain (Homo sapiens, UniProt P37231)
Construct: made in house; host or cells: Escherichia coli
Sequence (P37231 238-503 limits assumed): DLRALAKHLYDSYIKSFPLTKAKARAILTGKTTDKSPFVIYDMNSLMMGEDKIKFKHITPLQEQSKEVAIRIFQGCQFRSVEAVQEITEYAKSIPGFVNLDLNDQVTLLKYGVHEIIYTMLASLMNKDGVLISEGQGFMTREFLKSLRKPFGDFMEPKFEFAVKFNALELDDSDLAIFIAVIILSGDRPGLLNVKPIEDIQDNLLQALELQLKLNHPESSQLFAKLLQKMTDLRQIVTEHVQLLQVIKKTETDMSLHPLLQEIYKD
Protocol text: Competition binding with [3H]KRP-297 to 6×His-hPPARγ ligand-binding domain
Test conditions: competition with 100 nM [3H]KRP-297; test concentration not given
Reported endpoint: Binding to the ligand-binding domain of PPARγ (%)
# number only, unit % dropped from output

The cases that follow already have their Binding to the ligand-binding domain of PPARγ on record.
INSERT INTO measurements (compound, scale_unit, number) VALUES
  ('CCCCC/C=C\C/C=C\CCCCCCCC(=O)SCCNC(=O)CCNC(=O)[C@H](O)C(C)(C)COP(=O)(O)OP(=O)(O)OC[C@H]1O[C@@H](n2cnc3c(N)ncnc32)[C@H](O)[C@@H]1OP(=O)(O)O', '%', 59),
  ('CCCCCCCC/C=C\CCCCCCCC(=O)SCCNC(=O)CCNC(=O)[C@H](O)C(C)(C)COP(=O)(O)OP(=O)(O)OC[C@H]1O[C@@H](n2cnc3c(N)ncnc32)[C@H](O)[C@@H]1OP(=O)(O)O', '%', 52),
  ('CCCCC/C=C\C/C=C\C/C=C\C/C=C\CCCC(=O)SCCNC(=O)CCNC(=O)[C@H](O)C(C)(C)COP(=O)(O)OP(=O)(O)OC[C@H]1O[C@@H](n2cnc3c(N)ncnc32)[C@H](O)[C@@H]1OP(=O)(O)O', '%', 46);

Attention now shifts to the item below.
Quick one: Binding to the ligand-binding domain of PPARγ for CCCCC/C=C/C=C1/C(=O)C=C[C@@H]1C/C=C\CCCC(=O)O [15-Deoxy-Δ^12,14-prostaglandin J2, 15-deoxy-Δ^12,14-prostaglandin J2, reference compound] ?
93
